target: acyl CoA-cholesterol-acyl transferase (ACAT) (Mus musculus); construct: in the presence of a macrophage J 774 homogenate; endogenous in cells; host or cells: J774 macrophage line; assay: Determination of ACAT: inhibition of esterification of free intracellular cholesterol in macrophage line J 774; assay type: cell-based; conditions: J774; macrophage line J 774, 24 hours, 10^-5 M, relative to placebo; read-out: percentage inhibition of ACAT activity of the macrophages
Sequence (Q61263 whole entry): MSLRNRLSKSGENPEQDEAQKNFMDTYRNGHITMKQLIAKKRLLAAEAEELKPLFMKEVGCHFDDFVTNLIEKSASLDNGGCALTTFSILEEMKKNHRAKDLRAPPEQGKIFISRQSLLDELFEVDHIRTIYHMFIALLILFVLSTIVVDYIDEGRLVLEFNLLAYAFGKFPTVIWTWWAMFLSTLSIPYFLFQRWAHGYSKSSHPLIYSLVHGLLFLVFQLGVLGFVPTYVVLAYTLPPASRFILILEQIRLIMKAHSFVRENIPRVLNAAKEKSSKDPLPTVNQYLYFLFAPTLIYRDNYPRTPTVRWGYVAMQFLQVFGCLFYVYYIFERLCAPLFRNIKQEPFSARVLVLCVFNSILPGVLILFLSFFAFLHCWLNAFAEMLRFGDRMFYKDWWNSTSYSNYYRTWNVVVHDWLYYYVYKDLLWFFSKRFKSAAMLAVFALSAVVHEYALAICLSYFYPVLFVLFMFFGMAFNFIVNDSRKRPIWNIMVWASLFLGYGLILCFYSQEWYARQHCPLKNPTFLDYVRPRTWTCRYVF
measurement_kind: inhibition at 10 µM (%)

[[record]]
compound = "CCCCCC=CCC=CCC=CCCCCC(=O)Nc1cc(C)c(O)c(C)c1C"
measured_value = 94

[[record]]
compound = "CCCCC/C=C\\C/C=C\\CCCCCCCC(=O)Nc1cc(C)c(O)c(C)c1C"
measured_value = 90

[[record]]
compound = "CCCCCCCCCCC1(C(=O)Nc2cc(C)c(O)c(C)c2C)CCCC1"
measured_value = 98

[[record]]
compound = "CCCCCCCC/C=C\\CCCCCCC(C)C(=O)Nc1cc(C)c(O)c(C)c1C (stereo not shown)"
measured_value = 95

[[record]]
compound = "CCCCCCCCCCCC(C)(C)C(=O)Nc1cc(C)c(O)c(C)c1C"
measured_value = 96

[[record]]
compound = "CCCCCCCC/C=C\\CCCCCCCC(=O)Nc1c(OC)cc(OC)cc1OC"
measured_value = 75

[[record]]
compound = "CCCCC/C=C\\C/C=C\\CCCCCCC(C)C(=O)Nc1cc(C)c(O)c(C)c1C (stereo not shown)"
measured_value = 97

[[record]]
compound = "CCCCCCCCCC(C)(C)C(=O)Nc1cc(C)c(O)c(C)c1C"
measured_value = 92

[[record]]
compound = "CCCCCCCCCCC(C)(C)C(=O)Nc1cc(C)c(O)c(C)c1C"
measured_value = 93

[[record]]
compound = "CCCCCCCCCC(C)C(=O)Nc1cc(C)c(O)c(C)c1C (stereo not shown)"
measured_value = 91

